# Tested on: DU-145 prostate
# test method notes: NCI tumour cell line growth inhibition, 48 h
The following molecules are shown together with reported GI50 values.
measurement name: GI50

                                   molecule  measurement_name  readout_value
0  COc1ccc(C2CC(c3ccc(N(C)C)cc3)=NN2c2ccc(S(N)(=O)=O)cc2)cc1 (stereo not given)              GI50        4.84 µM
1  C=CC[N+]1(CC)CCN=C1CCCCCCCCCCCCCCCCC (stereo not given)              GI50       0.659 µM
2  Cc1ccc(-n2c(-c3cc4c([nH]c5ccccc54)c(-c4cccc(O)c4)n3)n[nH]c2=S)cc1              GI50       0.616 µM
3      CC(C)N(Cc1ccc(F)cc1)c1ccc(CO)c(Cl)c1              GI50        11.1 µM
4  C[C@H]1CN(C2COC2)CCN1c1ccc(Nc2cc(-c3ccnc(N4CCn5c(cc6c5CC(C)(C)C6)C4=O)c3CO)cn(C)c2=O)nc1              GI50        45.9 µM

###

# Test system: SF-268 CNS
# test method notes: NCI tumour cell line growth inhibition, 48 h
measurement name: GI50

>>> df
                                   molecule  measurement_target  readout_value
0  COc1cc(-c2ncn(/C=C\c3nnco3)n2)cc(C(F)(F)F)c1          SF-268 CNS      0.0891 µM
1  Clc1nc(Cl)c2ncn(CCOCCn3cnc4c(Cl)nc(Cl)nc43)c2n1          SF-268 CNS       0.194 µM
2  COc1ccc(C2CC(c3ccc(N(C)C)cc3)=NN2c2ccc(S(N)(=O)=O)cc2)cc1 (stereo not given)          SF-268 CNS        5.76 µM
3        c1ccc(C2CCCCC2)c(OCCCCCN2CCNCC2)c1          SF-268 CNS        5.14 µM
4  Cc1ccc(Cl)cc1-n1c(C)nc2c(cnn2-c2ccnc3c(C(F)(F)F)cccc23)c1=O          SF-268 CNS       > 100 µM

###

# Test system: HL-60(TB) leukemia
# test method notes: NCI tumour cell line growth inhibition, 48 h

compound	TGI
O=C(N/N=C(\C1=Nc2ccc(Cl)cc2NC1O)C(O)/C=C/c1ccccc1)c1ccncc1 (configuration not stated)	> 100 µM
Cc1ccc(Cl)cc1-n1c(C)nc2c(cnn2-c2ccnc3c(C(F)(F)F)cccc23)c1=O	> 100 µM
c1ccc(-c2csc3ncn4cnnc4c23)cc1	> 100 µM
O=[N+]([O-])/C=C/c1ccc(Cl)cc1Cl	25.3 µM
C[C@H]1CN(C2COC2)CCN1c1ccc(Nc2cc(-c3ccnc(N4CCn5c(cc6c5CC(C)(C)C6)C4=O)c3CO)cn(C)c2=O)nc1	47.2 µM
CN1CCCC1c1cccnc1.O=C(O)c1ccccc1O.O=C([O-])c1ccccc1[OH2+].O=C([O-])c1ccccc1[OH2+].[Mn+2] (configuration not stated)	> 100 µM
COc1ccc(-c2[nH]c3ccccc3c2/C=C(\C#N)S(=O)(=O)c2ccccc2)cc1	1.5 µM
C/C(N=NS(=O)(=O)c1ccc(C)cc1)=C1\C=CC=CN1O	> 100 µM
N#Cc1c(NC(=O)c2ccccc2F)sc2c1CCCC2	> 25 µM
C=CCN(CC=C)C(=O)[C@H](CC)[C@@H]1CC[C@@H](C)[C@@H]([C@H](C)[C@@H](O)[C@@H](C)C(=O)[C@H](CC)C2O[C@]3(C=C[C@@H](O)[C@]4(CC[C@@](C)([C@H]5CC[C@](O)(CC)[C@H](C)O5)O4)O3)[C@H](C)C[C@@H]2C)O1 (some centres not stated)	4.76 µM
C[C@H]1C(=O)c2c(cc(O)c(C3OC(CO)C(O)C(O)C3O)c2O)OC1c1ccc(O)c(O)c1 (some centres not stated)	> 100 µM
OC1COC(OCc2ccccc2)C(O)C1O (configuration not stated)	> 100 µM
